Values compiled from patent US20210145976A1.

# target.desc: T1, recombinant biotinylated CD71 extracellular domain (Sino Biologics) with an N-terminal 6His tag (human, UniProt P02786 89-760, biotinylated (sites not given))
# T1 construct: extracellular domain; also called hCD71; huCD71
# protocol.summary: screening ELISA
Quick list: hCD71 per entry.
Write the value as a bare number.

// worked examples, hCD71 included
SEQ ID NO 266 (designed binder, FN3 domain) MLPAPKNLVVSRVTEDSARLSWTAPDAAFDSFMIRYQEGTRWGEAIVLTVPGSERSYDLTGLKPGTEYIVMIAGVKGGQISLPLSAIFTT	894000
SEQ ID NO 275 (designed binder, FN3 domain) MLPAPKNLVVSRVTEDSARLSWTAPDAAFDSFLIAYAEVTLHGEAIVLTVPGSERSYDLTGLKPGTEYSVLIHGVKGGRNSDPLSAIFTT	2.25e+06
SEQ ID NO 93 (designed binder, FN3 domain) MLPAPKNLVVSRVTEDSARLSWTAPDAAFDSFYIGYLEPGDNGEAIVLTVPGSERSYDLTGLKPGTEYNVSIGGVKGGLGSYPLSAIFTT	2.16e+06
SEQ ID NO 234 (designed binder, FN3 domain) MLPAPKNLVVSRVTEDSARLSWTAPDAAFDSFYITYWETWDYGEAIVLTVPGSERSYDLTGLKPGTEYKVPITGVKGGGPSVPLSAIFTT	680000
SEQ ID NO 180 (designed binder, FN3 domain) MLPAPKNLVVSRVTEDSARLSWTAPDAAFDSFEISYYEMRGYGEAIVLTVPGSERSYDLTGLKPGTEYSVLIHGVEGGDYSSPLSAISTT	1.68e+06

Okay, next one:
Query: Request the reported hCD71 associated with SEQ ID NO 85 (designed binder, FN3 domain) MLPAPKNLVVSRVTEDSARLSWTAPDAAFDSFFIWYWEKSVDGEAIVLTVPGSERSYDLTGLKPGTEYNVGIQGVKGGTPSDPLSAIFTT
Result: 2.91e+06
